Molecular target: T1, single-site biotinylated human TL1A (human, UniProt O95150 72-251, single-site biotinylated (site not stated))
T1 construct: construct used for biotinylation not described
T1 sequence: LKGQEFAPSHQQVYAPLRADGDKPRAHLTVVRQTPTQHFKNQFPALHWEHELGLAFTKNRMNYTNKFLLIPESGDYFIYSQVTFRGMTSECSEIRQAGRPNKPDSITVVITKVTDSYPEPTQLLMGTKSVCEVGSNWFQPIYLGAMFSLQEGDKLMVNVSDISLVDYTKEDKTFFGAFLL
Experiment: competition ELISA: antibody dilutions pre-incubated with biotinylated human TL1A (1 µg/ml), added to plate-coated DcR3/Fc; bound TL1A detected with streptavidin-HRP; blocked partner DcR3/Fc [bottom panel]
Method: 1.8. […] DR3/Fc Chimera (R&D Systems) or DcR3/Fc Chimera (R&D Systems) was coated onto a 96-well plate (Maxisorp, Nunc) at a concentration of 2 μg/ml.
MEASUREMENT_KIND: IC50 (read off the curve)

Which IC50 (read off the curve) value is on record for 320-585 (antibody, human IgG1, name in Kabat numbering, V domains shown, human IgG1, lambda) VH: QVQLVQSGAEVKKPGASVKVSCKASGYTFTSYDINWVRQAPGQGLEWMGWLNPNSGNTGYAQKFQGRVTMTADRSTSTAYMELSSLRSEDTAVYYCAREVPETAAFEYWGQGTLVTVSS VL: QSVLTQPPSVSGAPGQRVTISCTSSSSDIGAGQGVHWYQQLPGTAPKLLIEGYYNRPSGVPDRFSGSKSGTSASLTITGLLPEDEGDYYCQSWDGTLSALFGGGTKLTVLG ?
~2 µg/mL

New cases:
Data request, read-out IC50 (read off the curve), for 320-586 (antibody, human IgG1, name in Kabat numbering, V domains shown, human IgG1, lambda) VH: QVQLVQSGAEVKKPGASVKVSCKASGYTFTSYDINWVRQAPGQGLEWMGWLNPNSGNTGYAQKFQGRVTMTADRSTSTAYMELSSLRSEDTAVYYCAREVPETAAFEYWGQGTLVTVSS VL: QSVLTQPPSVSGAPGQRVTISCTSSSSDIGAGLGVLWYQQLPGTAPKLLIEGYYNRPSGVPDRFSGSKSGTSASLTITGLLPEDEGDYYCQSWDGTLSALFGGGTKLTVLG
~2 µg/mL

Next entry: 320-584 (antibody, human IgG1, name in Kabat numbering, V domains shown, human IgG1, lambda) VH: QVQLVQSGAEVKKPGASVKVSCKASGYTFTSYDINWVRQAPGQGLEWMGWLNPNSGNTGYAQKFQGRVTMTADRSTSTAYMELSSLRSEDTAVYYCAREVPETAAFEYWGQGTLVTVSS VL: QSVLTQPPSVSGAPGQRVTISCTSSSSDIGAGSGVHWYQQLPGTAPKLLIEGYYNRPSGVPDRFSGSKSGTSASLTITGLLPEDEGDYYCQSWDGTLSALFGGGTKLTVLG
~2 µg/mL

Now consider 320-583 (antibody, human IgG1, name in Kabat numbering, V domains shown, human IgG1, lambda) VH: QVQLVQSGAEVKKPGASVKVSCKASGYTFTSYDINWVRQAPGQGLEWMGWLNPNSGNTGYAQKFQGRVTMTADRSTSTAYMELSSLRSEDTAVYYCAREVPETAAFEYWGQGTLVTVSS VL: QSVLTQPPSVSGAPGQRVTISCTSSSSDIGAALGVHWYQQLPGTAPKLLIEGYYNRPSGVPDRFSGSKSGTSASLTITGLLPEDEGDYYCQSWDGTLSALFGGGTKLTVLG .
~1 µg/mL
